- subject-of-test: Voltage-gated inwardly rectifying potassium channel KCNH2 (Cavia porcellus, UniProt O08703)
- Sequence (O08703 whole entry): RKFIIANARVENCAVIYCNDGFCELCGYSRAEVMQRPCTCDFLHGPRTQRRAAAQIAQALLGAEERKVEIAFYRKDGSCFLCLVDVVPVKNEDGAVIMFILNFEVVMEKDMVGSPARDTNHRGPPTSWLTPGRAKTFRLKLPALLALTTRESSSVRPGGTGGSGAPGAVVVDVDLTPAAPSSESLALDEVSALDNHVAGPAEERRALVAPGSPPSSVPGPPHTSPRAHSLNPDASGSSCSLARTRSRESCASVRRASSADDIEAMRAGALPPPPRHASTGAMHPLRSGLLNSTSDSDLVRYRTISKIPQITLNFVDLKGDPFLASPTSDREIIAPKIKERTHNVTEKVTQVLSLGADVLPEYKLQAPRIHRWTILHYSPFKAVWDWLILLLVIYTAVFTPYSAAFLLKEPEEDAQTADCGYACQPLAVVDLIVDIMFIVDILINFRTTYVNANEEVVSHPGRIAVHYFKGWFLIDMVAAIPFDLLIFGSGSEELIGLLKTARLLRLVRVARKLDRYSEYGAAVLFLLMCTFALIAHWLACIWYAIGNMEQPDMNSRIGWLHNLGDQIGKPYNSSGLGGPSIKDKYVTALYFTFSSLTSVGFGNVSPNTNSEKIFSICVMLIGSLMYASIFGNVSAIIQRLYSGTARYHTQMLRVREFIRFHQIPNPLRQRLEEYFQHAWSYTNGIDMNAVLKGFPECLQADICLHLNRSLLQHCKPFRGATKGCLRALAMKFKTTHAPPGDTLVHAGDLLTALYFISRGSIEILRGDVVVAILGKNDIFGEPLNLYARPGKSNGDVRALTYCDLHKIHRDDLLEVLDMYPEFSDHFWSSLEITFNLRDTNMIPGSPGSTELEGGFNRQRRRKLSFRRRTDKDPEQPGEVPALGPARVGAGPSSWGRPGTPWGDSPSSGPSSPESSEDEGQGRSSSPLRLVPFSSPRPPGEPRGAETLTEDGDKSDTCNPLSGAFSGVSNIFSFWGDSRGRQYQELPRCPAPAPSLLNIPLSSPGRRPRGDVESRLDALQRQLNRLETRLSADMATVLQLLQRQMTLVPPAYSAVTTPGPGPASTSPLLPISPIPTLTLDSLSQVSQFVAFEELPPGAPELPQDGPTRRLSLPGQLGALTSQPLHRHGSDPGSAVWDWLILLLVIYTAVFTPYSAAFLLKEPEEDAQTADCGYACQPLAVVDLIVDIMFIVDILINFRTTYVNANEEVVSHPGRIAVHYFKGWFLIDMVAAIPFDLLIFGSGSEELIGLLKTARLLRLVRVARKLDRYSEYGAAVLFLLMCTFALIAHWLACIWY
- method-summary: Inhibition of ERG in guinea pig ventricular myocytes assessed as blockade of rapid delayed rectifier potassium current by whole cell patch-clamp technique
pIC50: −log10 of the molar value.
Form field: pIC50 (one value per entry).
experimental-readout: pIC50

{"columns": ["compound", "censoring-sign", "readout-value"],
 "data": [
  ["O=C1CN(/N=C2\\CCOc3ccc(O)cc32)C(=O)N1CCCCN1CCCCC1", "<", 5.00],
  ["CCOc1ccc2c(c1)/C(=N/N1CC(=O)N(CCCCN3CCN(C)CC3)C1=O)CCO2", "=", 5.21],
  ["CN1CCN(CCCN2C(=O)CN(/N=C3\\CCOc4ccc(Cl)cc43)C2=O)CC1", "=", 5.41],
  ["Cc1ccc2c(c1)/C(=N/N1CC(=O)N(CCCCN3CCN(C)CC3)C1=O)CCO2", "<", 5.00],
  ["CN1CCN(CCCCN2C(=O)CN(/N=C3\\CCOc4ccc(O)cc43)C2=O)CC1", "<", 4.00],
  ["CN1CCN(CCCCN2C(=O)CN(/N=C/c3ccc(-c4ccc(Cl)cc4)o3)C2=O)CC1 [AZIMILIDE]", "=", 6.74]
]}

----------
IC50 overview
- subject-of-test: Potassium voltage-gated channel subfamily KQT member 1 (Cavia porcellus, UniProt O70344)
- Sequence (O70344 whole entry): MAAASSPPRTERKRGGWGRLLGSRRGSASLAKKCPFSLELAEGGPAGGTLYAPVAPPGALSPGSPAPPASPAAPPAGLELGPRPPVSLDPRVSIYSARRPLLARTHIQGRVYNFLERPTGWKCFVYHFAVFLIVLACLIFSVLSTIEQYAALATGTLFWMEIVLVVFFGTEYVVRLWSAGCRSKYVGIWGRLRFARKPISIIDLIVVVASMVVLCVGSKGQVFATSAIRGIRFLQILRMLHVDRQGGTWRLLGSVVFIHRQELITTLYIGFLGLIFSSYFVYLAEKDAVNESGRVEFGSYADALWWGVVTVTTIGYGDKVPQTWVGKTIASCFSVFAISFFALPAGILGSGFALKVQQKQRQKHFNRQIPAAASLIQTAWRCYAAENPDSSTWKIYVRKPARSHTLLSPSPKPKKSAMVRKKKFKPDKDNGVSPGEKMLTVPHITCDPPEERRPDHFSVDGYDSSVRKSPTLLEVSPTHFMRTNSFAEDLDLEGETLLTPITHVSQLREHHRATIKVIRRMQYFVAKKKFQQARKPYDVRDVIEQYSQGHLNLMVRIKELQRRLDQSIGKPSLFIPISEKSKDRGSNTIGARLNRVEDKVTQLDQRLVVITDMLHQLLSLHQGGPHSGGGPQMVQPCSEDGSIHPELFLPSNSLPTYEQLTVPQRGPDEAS
- method-summary: Inhibition of KVLQT1/minK in guinea pig ventricular myocytes assessed as blockade of slow delayed rectifier potassium current by whole cell patch-clamp technique

{"columns": ["compound", "uom", "censoring-sign", "IC50"],
 "data": [
  ["CN1CCN(CCCN2C(=O)CN(/N=C3\\CCOc4ccc(Cl)cc43)C2=O)CC1", "µM", "=", 0.0058],
  ["Cc1ccc2c(c1)/C(=N/N1CC(=O)N(CCCCN3CCN(C)CC3)C1=O)CCO2", "µM", ">", 100],
  ["O=C1CN(/N=C2\\CCOc3ccc(O)cc32)C(=O)N1CCCCN1CCCCC1", "µM", "=", 5.4],
  ["CCOc1ccc2c(c1)/C(=N/N1CC(=O)N(CCCCN3CCN(C)CC3)C1=O)CCO2", "µM", ">", 10],
  ["CN1CCN(CCCCN2C(=O)CN(/N=C/c3ccc(-c4ccc(Cl)cc4)o3)C2=O)CC1 [AZIMILIDE]", "µM", "=", 0.24],
  ["CN1CCN(CCCCN2C(=O)CN(/N=C3\\CCOc4ccc(O)cc43)C2=O)CC1", "µM", "=", 60]
]}
